molecular target: human TGR5 (Homo sapiens, UniProt Q8TDU6); construct: expressed in transfected cells; host or cells: HEK293; test: Cell-based TGR5 assay (cAMP generation, HTRF); details: HEK293 cells stably transfected with human TGR5; cAMP by HTRF; 30 minutes at 37° C.; read-out: pEC50 Human TGR5 (converted)
Sequence (Q8TDU6 whole entry): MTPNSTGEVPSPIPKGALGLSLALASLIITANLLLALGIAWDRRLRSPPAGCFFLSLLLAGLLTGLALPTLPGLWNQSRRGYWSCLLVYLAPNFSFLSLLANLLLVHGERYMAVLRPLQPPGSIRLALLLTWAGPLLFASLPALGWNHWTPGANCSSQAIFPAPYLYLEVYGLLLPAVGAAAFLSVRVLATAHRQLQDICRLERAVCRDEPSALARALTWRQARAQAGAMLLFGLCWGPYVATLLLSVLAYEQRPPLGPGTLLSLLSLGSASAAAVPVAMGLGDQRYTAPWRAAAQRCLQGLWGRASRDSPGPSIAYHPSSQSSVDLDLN
# EC50 listing for each entry below

1) O=C(CCS(=O)(=O)c1ccccc1)N(CCCCc1cc(Cl)c(COC2(c3cnccc3-c3ccccc3OC3CC3)CC2)cc1Cl)C[C@H](O)[C@@H](O)[C@H](O)[C@H](O)CO [Compound I-70] : 126 to 1000 nM
2) O=C(CCC1CCN(S(=O)(=O)c2ccc(Cl)c(COC3(c4cnccc4-c4ccccc4OC4CC4)CC3)c2)C1)NC[C@H](O)[C@@H](O)[C@H](O)[C@H](O)CO (stereo partly drawn) [Compound I-451] : < 100 nM
3) O=C(NCCCSc1ccc(Cl)c(CNC2(c3cnccc3-c3ccccc3OC3CC3)CC2)c1)NC[C@H](O)[C@@H](O)[C@H](O)[C@H](O)CO [Compound I-622] : < 100 nM
4) Cc1cc(CNC2(c3cnccc3-c3ccccc3OC3CC3)CC2)c(Cl)cc1CCCCC(=O)NC[C@H](O)[C@@H](O)[C@H](O)[C@H](O)CO [Compound I-142] : < 100 nM
5) CN(CCO[C@@H]1O[C@H](CO)[C@@H](O)[C@H](O)[C@H]1O)C(=O)CCCCc1cc(Cl)c(COC2(c3cnccc3-c3ccccc3OC3CC3)CC2)cc1Cl [Compound I-121] : < 100 nM
6) O[C@@H]1COC[C@H]1Oc1ccccc1-c1ccncc1C1(NCc2cc(Cl)ccc2Cl)CC1 [Compound I-22] : 1260 to 10000 nM
7) O=C1CCCN1CCCN(CCCSc1ccc(Cl)c(COC2(c3cnccc3-c3ccccc3OC3CC3)CC2)c1)C(=O)[C@@H](O)[C@@H](O)[C@H](O)[C@@H](O)CO [Compound I-520] : 126 to 1000 nM
8) O=C([C@@H](O)[C@@H](O)[C@H](O)[C@@H](O)CO)N(CCCSc1ccc(Cl)c(COC2(c3cnccc3-c3ccccc3OC3CC3)CC2)c1)CC1CCOCC1 [Compound I-522] : 126 to 1000 nM
9) CC(=O)NCCCCN(CCCC(C)c1ccc(Cl)c(CNC2(c3cnccc3-c3ccccc3OC3CC3)CC2)c1)C(=O)[C@@H](O)[C@@H](O)[C@H](O)[C@@H](O)CO (stereo partly drawn) [Compound I-290] : < 100 nM
10) O=C(O)CCN(C[C@H](O)[C@@H](O)[C@H](O)[C@H](O)CO)C(=O)CCCCc1cc(Cl)c(COC2(c3cnccc3-c3ccccc3OC3CC3)CC2)cc1Cl [Compound I-183] : < 100 nM

Q: Could you tell me which EC50 is on file for CN(C)S(=O)(=O)CCN(C[C@H](O)[C@@H](O)[C@H](O)[C@H](O)CO)C(=O)CCCSc1ccc(Cl)c(COC2(c3cnccc3-c3ccccc3OC3CC3)CC2)c1 [Compound I-693] ?
Ans: 126 to 1000 nM

Q: Could you tell me which EC50 is on file for O=C1CCCN1CCCN(CCCSc1ccc(Cl)c(CNC2(c3cnccc3-c3ccccc3OC3CC3)CC2)c1)C(=O)[C@@H](O)[C@@H](O)[C@H](O)[C@@H](O)CO [Compound I-529] ?
Ans: 126 to 1000 nM

Q: Could you tell me which EC50 is on file for CCN(CCOCCNC(=O)N[C@@H](CO)[C@@H](O)[C@H](O)[C@H](O)CO)S(=O)(=O)c1ccc(Cl)c(COC2(c3cnccc3-c3ccccc3OC3CC3)CC2)c1 [Compound I-415] ?
Ans: < 100 nM

Q: Could you tell me which EC50 is on file for CS(=O)(=O)CCCN(CCCCSc1ccc(Cl)c(CNC2(c3cnccc3-c3ccccc3OC3CC3)CC2)c1)C(=O)[C@@H](O)[C@@H](O)[C@H](O)[C@@H](O)CO [Compound I-532] ?
Ans: < 100 nM

Q: Could you tell me which EC50 is on file for C[C@@H](CCCC(=O)N(C)C[C@H](O)[C@@H](O)[C@H](O)[C@H](O)CO)c1ccc(Cl)c(CNC2(c3cnccc3-c3ccccc3OC3CC3)CC2)c1 (single isomer, unassigned) [Compound I-325] ?
Ans: < 100 nM

Q: Could you tell me which EC50 is on file for O=S(=O)(Nc1ccccc1)c1ccc(Cl)c(COC2(c3cnccc3-c3ccccc3OC3CC3)CC2)c1 [Compound I-771] ?
Ans: < 100 nM

Q: Could you tell me which EC50 is on file for CCN(CCCCNC(=O)NC[C@H](O)[C@@H](O)[C@H](O)[C@H](O)CO)S(=O)(=O)c1ccc(Cl)c(COC2(c3cnccc3-c3ccccc3OC3CC3)CC2)c1 [Compound I-390] ?
Ans: < 100 nM

Q: Could you tell me which EC50 is on file for CN(CCCCNC(=O)NC[C@H](O)[C@@H](O)[C@H](O)[C@H](O)CO)S(=O)(=O)c1ccc(Cl)c(CNC2(c3cnccc3-c3ccccc3OC3CC3)CC2)c1 [Compound I-471] ?
Ans: < 100 nM

Q: Could you tell me which EC50 is on file for C[C@H](CCCCNC(=O)N[C@@H](CO)[C@@H](O)[C@H](O)[C@H](O)CO)c1ccc(Cl)c(COC2(c3cnccc3-c3ccccc3OC3CC3)CC2)c1 (single isomer, unassigned) [Compound I-264] ?
Ans: < 100 nM

Q: Could you tell me which EC50 is on file for O=C([C@@H](O)[C@@H](O)[C@H](O)[C@@H](O)CO)N(CCCCO)CCCCSc1ccc(Cl)c(CNC2(c3cnccc3-c3ccccc3OC3CC3)CC2)c1 [Compound I-534] ?
Ans: < 100 nM

Q: Could you tell me which EC50 is on file for Clc1ccc(C2CC2)cc1COC1(c2cnccc2-c2ccccc2OC2CC2)CC1 [Compound I-53] ?
Ans: < 100 nM

###

# EC50 listing for each entry below
target: human TGR5 (Homo sapiens); construct: expressed in transfected cells; host or cells: HEK293; assay: Cell-based TGR5 assay (cAMP generation, HTRF); conditions: HEK293 cells stably transfected with human TGR5; cAMP by HTRF; 30 minutes at 37° C.; read-out: pEC50 Human TGR5 (converted)

1) CC(=O)NS(=O)(=O)c1ccc(Cl)c(COC2(c3cnccc3-c3ccccc3OC3CC3)CC2)c1 : 1.26 to 10 µM

Q: Could you tell me which EC50 is on file for O=C(CCCCc1cc(Cl)c(COC2(c3cnccc3-c3ccccc3OC3CC3)CC2)cc1Cl)N(CC(O)CO)C[C@H](O)[C@@H](O)[C@H](O)[C@H](O)CO (some centres unmarked) ?
Ans: < 0.1 µM

Q: Could you tell me which EC50 is on file for `O=C(NCCCCSc1ccc(Cl)c(COC2(c3cnccc3-c3ccccc3OC3CC3)CC2)c1)NC[C@H](O)[C@@H](O)[C@H](O)[C@H](O)CO` ?
Ans: < 0.1 µM

Q: Could you tell me which EC50 is on file for CC(CCCNC(=O)[C@@H](O)[C@@H](O)[C@H](O)[C@@H](O)CO)c1ccc(Cl)c(CNC2(c3cnccc3-c3ccccc3OC3CC3)CC2)c1 (some centres unmarked) ?
Ans: < 0.1 µM

Q: Could you tell me which EC50 is on file for CCNC(=O)CCN(C[C@H](O)[C@@H](O)[C@H](O)[C@H](O)CO)C(=O)CCCC(C)c1ccc(C)c(CNC2(c3cnccc3-c3ccccc3OC3CC3)CC2)c1 (some centres unmarked) ?
Ans: 0.126 to 1 µM

Q: Could you tell me which EC50 is on file for `Cc1cc(CNC2(c3cnccc3-c3ccccc3OC3CC3)CC2)c(C)cc1CCCCC(=O)N(C)C[C@H](O)[C@@H](O)[C@H](O)[C@H](O)CO` ?
Ans: 0.126 to 1 µM

Q: Could you tell me which EC50 is on file for `O=C([C@@H](O)[C@@H](O)[C@H](O)[C@@H](O)CO)N(CCCCCSc1ccc(Cl)c(CNC2(c3cnccc3-c3ccccc3OC3CC3)CC2)c1)CCOCCO` ?
Ans: < 0.1 µM

Q: Could you tell me which EC50 is on file for Cc1ccc(C(C)CCCC(=O)N(CCCS(C)(=O)=O)C[C@H](O)[C@@H](O)[C@H](O)[C@H](O)CO)cc1CNC1(c2cnccc2-c2ccccc2OC2CC2)CC1 (some centres unmarked) ?
Ans: < 0.1 µM

###

# EC50 listing for each entry below
molecular target: human TGR5 (Homo sapiens, UniProt Q8TDU6); construct: expressed in transfected cells; host or cells: HEK293; assay: Cell-based TGR5 assay (cAMP generation, HTRF); conditions: HEK293 cells stably transfected with human TGR5; cAMP by HTRF; 30 minutes at 37° C.; read-out: pEC50 Human TGR5 (converted)

1. O=C(O)CNC(=O)N(CCCCc1cc(Cl)c(COC2(c3cnccc3-c3ccccc3OC3CC3)CC2)cc1Cl)C[C@H](O)[C@@H](O)[C@H](O)[C@H](O)CO (stereo in doubt) [Compound I-197] : 126 to 1000 nM

Q: Could you tell me which EC50 is on file for O=C([C@@H](O)[C@@H](O)[C@H](O)[C@@H](O)CO)N(CCCCc1cc(Cl)c(COC2(c3cnccc3-c3ccccc3OC3CC3)CC2)cc1Cl)CCOCCO [Compound I-85] ?
Ans: < 100 nM

Q: Could you tell me which EC50 is on file for CN(C)C(=O)CN(C[C@H](O)[C@@H](O)[C@H](O)[C@H](O)CO)C(=O)CCCCc1cc(Cl)c(COC2(c3cnccc3-c3ccccc3OC3CC3)CC2)cc1Cl [Compound I-221] ?
Ans: < 100 nM

Q: Could you tell me which EC50 is on file for Cc1ccc(C(C)CCCC(=O)N(C)C[C@H](O)[C@@H](O)[C@H](O)[C@H](O)CO)cc1CNC1(c2cnccc2-c2ccccc2OC2CC2)CC1 (stereo partly shown) [Compound I-352] ?
Ans: < 100 nM
